From: PubChem BioAssay AID1963983

Test system: 186277-243-T-J2-PDC multi-cell spheroid viability
Assay: Anticancer human tumor 186277-243-T-J2-PDC patient-derived colon adenocarcinoma cell line growth inhibition [PI3K]
Conditions: second compound 0.00316 µM; first compound 10 µM; stronger effect = lower value
From the text: Combinatorial screen of targeted agents with the PI3K inhibitors inavolisib, alpelisib, duvelisib, and copanlisib in multi-cell type tumor spheroids A high-throughput screen of multi-cell type tumor spheroids was designed to identify active combinations of targeted small molecules and PI3K pathway inhibitors. […] Compounds. […] If the clinical Cmax for an agent had not been determined, the highest concentration tested was 10 microM. […]
Recorded viability, T/C split into classes low band (below 10%), middle band (10% to below 90%), high band (90% or more)

Data request: Hello team, could you let me know which band the following compound falls into: CC(Cn1ccc(-c2ccc(C#N)c(Cl)c2)n1)NC(=O)c1cc(C(C)O)[nH]n1 (stereo unspecified) + CC(Nc1ccc2c(c1)OCCn1cc(N3C(=O)OCC3C(F)F)nc1-2)C(N)=O
Data returned: high band

Data request: Which class is correct for the following compound? CNC(=O)c1ccc(N2C(=S)N(c3ccc(C#N)c(C(F)(F)F)c3)C(=O)C2(C)C)cc1F + COc1c(OCCCN2CCOCC2)ccc2c3n(c(=NC(=O)c4cnc(N)nc4)nc12)CCN3
Data returned: high band

Data request: Looking at C=CC(=O)N1CCN(c2nc(=O)n(-c3c(C)ccnc3C(C)C)c3nc(-c4c(O)cccc4F)c(F)cc23)C(C)C1 (stereo unspecified) + COc1c(OCCCN2CCOCC2)ccc2c3n(c(=NC(=O)c4cnc(N)nc4)nc12)CCN3 , which class would you pick?
Data returned: middle band

Data request: Determine which band this compound sits in: CCCS(=O)(=O)Nc1ccc(F)c(C(=O)c2c[nH]c3ncc(-c4ccc(Cl)cc4)cc23)c1F + CC(Nc1ccc2c(c1)OCCn1cc(N3C(=O)OCC3C(F)F)nc1-2)C(N)=O
Data returned: low band

Data request: Record Cn1nccc1Nc1nccc(-c2ccn(C(CO)c3ccc(Cl)c(F)c3)c(=O)c2)n1 (stereo unspecified) + COc1c(OCCCN2CCOCC2)ccc2c3n(c(=NC(=O)c4cnc(N)nc4)nc12)CCN3 — which class?
Data returned: middle band

Data request: Please classify: CCCS(=O)(=O)Nc1ccc(F)c(C(=O)c2c[nH]c3ncc(-c4ccc(Cl)cc4)cc23)c1F + COc1c(OCCCN2CCOCC2)ccc2c3n(c(=NC(=O)c4cnc(N)nc4)nc12)CCN3
Data returned: middle band

Data request: Class? Entry: C=CC(=O)N1CCN(c2nc(=O)n(-c3c(C)ccnc3C(C)C)c3nc(-c4c(O)cccc4F)c(F)cc23)C(C)C1 (stereo unspecified) + CC(Nc1ccc2c(c1)OCCn1cc(N3C(=O)OCC3C(F)F)nc1-2)C(N)=O
Data returned: high band

Data request: Exam item: assign Cn1ncc(Cl)c1-c1cc(C(=O)NC(CN)Cc2cccc(F)c2)sc1Cl (stereo unspecified) + CC(Nc1ccc2c(c1)OCCn1cc(N3C(=O)OCC3C(F)F)nc1-2)C(N)=O to the correct category.
Data returned: middle band

Data request: Which category does the recorded viability, T/C put CC(Cn1ccc(-c2ccc(C#N)c(Cl)c2)n1)NC(=O)c1cc(C(C)O)[nH]n1 (stereo unspecified) + COc1c(OCCCN2CCOCC2)ccc2c3n(c(=NC(=O)c4cnc(N)nc4)nc12)CCN3 in?
Data returned: middle band

Data request: Class label required: CC1(C)CCC(Nc2ncc(C(F)(F)F)c(-c3c[nH]c4c(P(C)(C)=O)c(C#N)ccc34)n2)CN1 (stereo unspecified) + COc1c(OCCCN2CCOCC2)ccc2c3n(c(=NC(=O)c4cnc(N)nc4)nc12)CCN3
Data returned: low band

Data request: Input Cn1nccc1Nc1nccc(-c2ccn(C(CO)c3ccc(Cl)c(F)c3)c(=O)c2)n1 (stereo unspecified) + CC(Nc1ccc2c(c1)OCCn1cc(N3C(=O)OCC3C(F)F)nc1-2)C(N)=O ; output its category
Data returned: middle band

---

system: 186277-243-T-J2-PDC multi-cell spheroid viability; test: Anticancer human tumor 186277-243-T-J2-PDC cell line growth inhibition [PI3K]; settings: curve of compound;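 note: spheroids exposed to compounds for seven days before viability reading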
Quantity: IC50

Data request: Look up IC50: CC(Cn1ccc(-c2ccc(C#N)c(Cl)c2)n1)NC(=O)c1cc(C(C)O)[nH]n1 (stereo unspecified)
Data returned: > 10 µM

Data request: Field request: IC50 | item: CNC(=O)c1ccc(N2C(=S)N(c3ccc(C#N)c(C(F)(F)F)c3)C(=O)C2(C)C)cc1F
Data returned: > 10 µM

Data request: Dear colleague, I am looking for the recorded IC50 of the following compound: C#Cc1c(F)ccc2cc(O)cc(-c3ncc4c(N5CC6CCC(C5)N6)nc(OCC56CCCN5CC(F)C6)nc4c3F)c12 (stereo unspecified)
Data returned: 80.8 nM [middle of 4 runs]

Data request: Need IC50, item Cn1ncc(Cl)c1-c1cc(C(=O)NC(CN)Cc2cccc(F)c2)sc1Cl (stereo unspecified)
Data returned: 1.17 µM [middle of 4 runs]

Data request: Which IC50 value is on record for CC(C)n1nc(-c2ccc3oc(N)nc3c2)c2c(N)ncnc21 ?
Data returned: 63.7 nM [middle of 4 runs]

Data request: # IC50 lookup, item CC1(C)CCC(Nc2ncc(C(F)(F)F)c(-c3c[nH]c4c(P(C)(C)=O)c(C#N)ccc34)n2)CN1 (stereo unspecified)
Data returned: 3.64 µM [middle of 4 runs]

---

test system: 186277-243-T-J2-PDC multi-cell spheroid viability; assay: Anticancer human tumor 186277-243-T-J2-PDC cell line growth inhibition [PI3K]; conditions: second compound 0.316 µM; first compound 1 µM; active = viability on the fitted dose curve at most 10% of control; inactive = the rest;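 note: spheroids exposed to compounds for seven days before viability reading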
Allowed answers: active, inactive

Data request: Could you check what this test reported for Cn1ncc(Cl)c1-c1cc(C(=O)NC(CN)Cc2cccc(F)c2)sc1Cl (stereo not given) + Cc1nc(NC(=O)N2CCCC2C(N)=O)sc1-c1ccnc(C(C)(C)C(F)(F)F)c1 ?
Data returned: inactive

Data request: Outcome logged for CC(C)NCC(C(=O)N1CCN(c2ncnc3c2C(C)CC3O)CC1)c1ccc(Cl)cc1 (stereo not given) + COc1c(OCCCN2CCOCC2)ccc2c3n(c(=NC(=O)c4cnc(N)nc4)nc12)CCN3 in this assay:
Data returned: active

Data request: What classification did CCCS(=O)(=O)Nc1ccc(F)c(C(=O)c2c[nH]c3ncc(-c4ccc(Cl)cc4)cc23)c1F + CC(Nc1ccc2c(c1)OCCn1cc(N3C(=O)OCC3C(F)F)nc1-2)C(N)=O end up with in this test?
Data returned: inactive

Data request: Hello, I am checking results. What call was entered for C#Cc1c(F)ccc2cc(O)cc(-c3ncc4c(N5CC6CCC(C5)N6)nc(OCC56CCCN5CC(F)C6)nc4c3F)c12 (stereo not given) + Cc1nc(NC(=O)N2CCCC2C(N)=O)sc1-c1ccnc(C(C)(C)C(F)(F)F)c1 ?
Data returned: active

Data request: Write down the call the test reported for this compound. Item: CC(C)NCC(C(=O)N1CCN(c2ncnc3c2C(C)CC3O)CC1)c1ccc(Cl)cc1 (stereo not given) + CC(Nc1ccc2c(c1)OCCn1cc(N3C(=O)OCC3C(F)F)nc1-2)C(N)=O
Data returned: inactive

---

I'd appreciate it if you could supply pIC50 values for the items below.
tested on: 186277-243-T-J2-PDC multi-cell spheroid viability; experiment: Anticancer human tumor 186277-243-T-J2-PDC cell line growth inhibition [PI3K]; details: curve of first compound; second compound 0.01 µM;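 note: spheroids exposed to compounds for seven days before viability reading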
Reminder that pIC50 means the negative base-10 logarithm of the concentration expressed in mol/L.

Data request: Item under review: CC(C)n1nc(-c2ccc3oc(N)nc3c2)c2c(N)ncnc21 + CC(Nc1ccc2c(c1)OCCn1cc(N3C(=O)OCC3C(F)F)nc1-2)C(N)=O . Reported pIC50?
Data returned: 7.26

Data request: Need pIC50 of Cn1ncc(Cl)c1-c1cc(C(=O)NC(CN)Cc2cccc(F)c2)sc1Cl (stereo not drawn) + COc1c(OCCCN2CCOCC2)ccc2c3n(c(=NC(=O)c4cnc(N)nc4)nc12)CCN3 , thanks.
Data returned: 6.65

---

Assign viability, T/C to each entry below.
tested on: 186277-243-T-J2-PDC multi-cell spheroid viability; assay: Anticancer human tumor 186277-243-T-J2-PDC cell line growth inhibition [PI3K]; settings: second compound 3.16 µM; first compound 0.1 µM; stronger effect = lower value;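 note: spheroids exposed to compounds for seven days before viability reading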;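 for viability, T/C: 100% = DMSO vehicle control viability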

Data request: What value of viability, T/C has been reported for the following compound? CCN1CCN(Cc2ccc(Nc3ncc(F)c(-c4cc(F)c5nc(C)n(C(C)C)c5c4)n3)nc2)CC1 + Cc1nc(NC(=O)N2CCCC2C(N)=O)sc1-c1ccnc(C(C)(C)C(F)(F)F)c1
Data returned: 37%

Data request: GET /values?readout=viability, T/C&item= CC(C)NCC(C(=O)N1CCN(c2ncnc3c2C(C)CC3O)CC1)c1ccc(Cl)cc1 (stereo unspecified) + CC(Nc1ncnc2nc[nH]c12)c1cc2cccc(Cl)c2c(=O)n1-c1ccccc1
Data returned: 92.8%

Data request: Item under review: C=CC(=O)N1CCN(c2nc(=O)n(-c3c(C)ccnc3C(C)C)c3nc(-c4c(O)cccc4F)c(F)cc23)C(C)C1 (stereo unspecified) + Cc1nc(NC(=O)N2CCCC2C(N)=O)sc1-c1ccnc(C(C)(C)C(F)(F)F)c1 . Reported viability, T/C?
Data returned: 51.9%

Data request: Entry CC(C)n1nc(-c2ccc3oc(N)nc3c2)c2c(N)ncnc21 + Cc1nc(NC(=O)N2CCCC2C(N)=O)sc1-c1ccnc(C(C)(C)C(F)(F)F)c1 : reported viability, T/C = ?
Data returned: 3.88%

Data request: Quick one: viability, T/C for CC(=O)c1c(C)c2cnc(Nc3ccc(N4CCNCC4)cn3)nc2n(C2CCCC2)c1=O + Cc1nc(NC(=O)N2CCCC2C(N)=O)sc1-c1ccnc(C(C)(C)C(F)(F)F)c1 ?
Data returned: 37.4%

Data request: Give its viability, T/C value. Item: C#Cc1c(F)ccc2cc(O)cc(-c3ncc4c(N5CC6CCC(C5)N6)nc(OCC56CCCN5CC(F)C6)nc4c3F)c12 (stereo unspecified) + Cc1nc(NC(=O)N2CCCC2C(N)=O)sc1-c1ccnc(C(C)(C)C(F)(F)F)c1
Data returned: 5.57%
